The origin of these recorded values is patent EP2975030B1.

system: rat small-intestinal brush border membrane vesicles; assay: Inhibitory effect on 33PO4 uptake into rat small-intestinal brush border membrane vesicles (rapid filtration method); format: biochemical, Wistar female rat; settings: 1 µM test compound; 33PO4 uptake into rat small-intestinal BBMVs, 60 seconds
I'd appreciate it if you could supply Rate of uptake inhibition (%) (1 µM) values for the items below.
Answers are plain numbers, in %.

C[C@]12CCCN1N(Cc1ccc(OCCCCOC[C@H](O)CO)c(F)c1F)C(=O)C(C(=O)Nc1ccc(C(F)(F)F)cc1-c1cc(C(F)(F)F)ncn1)=C2O    54
CN(C)S(=O)(=O)c1ccc(-c2cc(C(F)(F)F)ccc2NC(=O)C2=C(O)[C@@]3(C)CCCN3N(Cc3cccc(F)c3F)C2=O)s1    97
CN1N(Cc2ccc(OCCN3CCC(N4CCOCC4)CC3)c(F)c2F)C(=O)C(C(=O)Nc2ccc(C(F)(F)F)cc2-c2cc(C(F)(F)F)ncn2)=C(O)C12CCCC2    42
Cc1cc(NC(=O)C2=C(O)[C@@H]3CCCCN3N(Cc3c(F)c(F)cc4cc[nH]c34)C2=O)c(C(F)(F)F)o1    33
COCCOc1cc(NC(=O)C2=C(O)[C@@]3(C)CCCN3N(Cc3cccc(F)c3F)C2=O)c(-c2cccc(OC)c2OC)cc1C(F)(F)F    81

Moving on to the next compound.
### Prompt Field request: Rate of uptake inhibition (%) (1 µM) | item: CN(CCOc1ccc(CN2C(=O)C(C(=O)Nc3ccc(C(F)(F)F)cc3-c3cc(C(F)(F)F)ncn3)=C(O)C3(CCCC3)N2C)c(F)c1F)C1CCOC1 (stereo not drawn)
### Response 38

----------
Tested on: rat small-intestinal brush border membrane vesicles
Experiment: Inhibitory effect on 33PO4 uptake into rat small-intestinal brush border membrane vesicles (rapid filtration method)
Type: biochemical, Wistar female rat
Conditions: 1 µM test compound; 33PO4 uptake into rat small-intestinal BBMVs, 60 seconds
Description: The ^33PO4 transport activity of the small-intestinal BBMVs was determined by the rapid filtration method. […] Then, ice-cold buffer C (110 mM NaCl, 1 mM KH2PO4, and 10 mM HEPES (pH 7.5)) was added to each reaction mixture, which was immediately suction-filtered through a Millipore filter. The filter was washed with buffer C, and each sample was then dissolved in a liquid scintillator. The amount of ^33PO4 uptake into BBMVs was measured using a liquid scintillation counter. […]
property label: Rate of uptake inhibition (%) (1 µM)
One number for each entry, in %.

Examples from the recorded data:
COc1cccc(-c2cc(C(F)(F)F)ccc2NC(=O)C2=C(O)[C@@]3(C)CCCN3N(Cc3ccc(OCc4ccncc4)c(F)c3F)C2=O)c1OC    92
CSc1ccc(-c2cc(C(F)(F)F)ccc2NC(=O)C2=C(O)C3(CCCC3)N(C)N(Cc3ccc(OCCN4CCOCC4)c(F)c3F)C2=O)cn1    55
CN1[C@@H](C(C)(C)C)C(O)=C(C(=O)Nc2cc(F)c(Br)c(F)c2)C(=O)N1Cc1cccc(F)c1F    72
C[C@]12CCCN1N(Cc1cc(F)c(F)cc1F)C(=O)C(C(=O)Nc1cc(F)c(Br)c(F)c1)=C2O    80
Cc1c(-c2cc(C(F)(F)F)ccc2NC(=O)C2=C(O)C3(CCCCC3)N(C)N(Cc3ccc(OCCN4CCOCC4)c(F)c3F)C2=O)ncnc1C(F)(F)F    17

Now for the compound whose Rate of uptake inhibition (%) (1 µM) we want.
### Prompt Data request, read-out Rate of uptake inhibition (%) (1 µM), for `CN1N(Cc2ccc(OCCN3CCOCC3)c(F)c2F)C(=O)C(C(=O)Nc2ccc(C(F)(F)F)cc2-c2ccc(C(F)(F)F)nc2)=C(O)C12CCC2`
### Response 55
